- study-target: human mAChR M1 (Homo sapiens, UniProt P11229)
- Construct: host or cells: CHO-K1 cells (ATCC), stably transfected using Lipofectamine2000
- Sequence (P11229 whole entry): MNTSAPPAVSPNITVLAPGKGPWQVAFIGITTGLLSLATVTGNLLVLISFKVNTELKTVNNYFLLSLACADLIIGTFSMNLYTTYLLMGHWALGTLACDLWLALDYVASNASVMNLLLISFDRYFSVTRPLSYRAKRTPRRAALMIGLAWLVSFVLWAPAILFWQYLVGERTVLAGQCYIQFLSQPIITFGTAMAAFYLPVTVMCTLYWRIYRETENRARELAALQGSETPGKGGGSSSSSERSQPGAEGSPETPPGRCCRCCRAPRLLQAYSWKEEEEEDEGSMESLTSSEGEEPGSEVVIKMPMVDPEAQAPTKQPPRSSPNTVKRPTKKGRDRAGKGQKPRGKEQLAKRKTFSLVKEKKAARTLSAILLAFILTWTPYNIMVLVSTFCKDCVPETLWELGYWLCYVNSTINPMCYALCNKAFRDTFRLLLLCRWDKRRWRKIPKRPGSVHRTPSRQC
- test-name: mAChR M1 cell-based functional assay (calcium mobilization), PAM activity: increase in the EC20 acetylcholine response
- assay-context: CHO-K1 cells expressing hM1; potentiation of EC20 acetylcholine response
Some molecules, each annotated with its measured EC50.

Examples with their reported EC50 follow.
| molecule | EC50 |
| --- | --- |
| Cn1cc2c(-c3cc(F)c(Cn4cc(C(=O)N[C@H]5CCOC[C@@H]5O)c5ncncc5c4=O)c(F)c3)cccc2n1 | ≥ 10 µM |
| Cc1cn2c(=O)n(Cc3ccc(-c4cnn(C)c4)cc3F)cc(C(=O)N[C@H]3CCCC[C@@H]3O)c2n1 | ≥ 10 µM |
| Cn1cc2c(-c3cc(F)c(Cn4cc(C(=O)N[C@H]5CCC[C@@H]5O)c5nccnc5c4=O)c(F)c3)cccc2n1 | 1.2 µM |

// switching to the query molecule
**Query** Report EC50 for Cn1ccc(-c2ccc(Cn3cc(C(=O)NC4CCOC(C)(C)C4)c4occc4c3=O)c(F)c2)n1 (stereo not shown) please.
**Result** > 10 µM
